# measurement-protocol: GC/MS of serum sample: time from blood collection to centrifugation (Table G)
# Format: physicochemical, human
# stated-conditions: detection intensity, blood collection to centrifugation, after 8 hours vs 15 minutes
# Protocol: After standing, the blood sample was subjected to centrifugation under a condition of room temperature, 3500 rpm, and 5 minutes. […] After centrifugation, the blood-collecting vessel was left to stand at room temperature, and the serum was isolated during this time. […]
endpoint: Increase or decrease

Example results:
O=C(O)CCCC(=O)O [Glutaric acid]; Increase
NCCCCN [Putrescine]; Increase
O=C[C@H](O)[C@@H](O)[C@@H](O)[C@H](O)C(=O)O [Galacturonic acid]; Decrease
CCCCCCCCCCCCCC(=O)O [Myristic acid]; Decrease
CC(=O)CC(=O)O [Acetoacetic acid]; Increase
CCCCCCCCCC(=O)O [Decanoic acid]; Decrease
O=C(O)CCC(O)C(=O)O (centres unmarked) [2-Hydroxyglutaric acid]; Increase
CC(C)C(=O)C(=O)O [2-Ketoisovaleric acid]; Decrease
O=c1[nH]c(=O)c2[nH]c(=O)[nH]c2[nH]1 [Uric acid]; Decrease
O=C(CO)[C@H](O)[C@H](O)[C@H](O)CO [Psicose]; Decrease

Now for another entry.
Ask | Which Increase or decrease reading was recorded for the compound O[C@H]1[C@H](O)[C@@H](O)[C@H](O)[C@@H](O)[C@@H]1O [Scyllo-inositol] ?
Reply | Decrease
